Reference for the values: ChEMBL document CHEMBL3120118

study target: UniProtKB P11229
Sequence (whole entry): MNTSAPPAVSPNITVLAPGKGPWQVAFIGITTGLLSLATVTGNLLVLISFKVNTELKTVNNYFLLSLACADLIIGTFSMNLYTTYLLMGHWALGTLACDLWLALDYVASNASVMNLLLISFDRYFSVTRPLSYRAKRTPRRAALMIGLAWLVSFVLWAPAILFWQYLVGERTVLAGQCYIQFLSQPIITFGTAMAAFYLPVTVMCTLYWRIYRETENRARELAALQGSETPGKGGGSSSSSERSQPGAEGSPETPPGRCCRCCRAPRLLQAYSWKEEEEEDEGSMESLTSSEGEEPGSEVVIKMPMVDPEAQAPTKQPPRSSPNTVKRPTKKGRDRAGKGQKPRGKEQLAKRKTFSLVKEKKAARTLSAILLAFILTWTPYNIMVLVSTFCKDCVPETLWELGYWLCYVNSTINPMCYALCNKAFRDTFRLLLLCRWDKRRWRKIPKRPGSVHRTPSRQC
protocol details: Stimulation of human muscarinic M1 receptor expressed in mouse A9 L cells at 1 to 100 uM after 1 hr by topcount analysis
Format: cell-based
measurement conditions: A9L
The source made the active and inactive calls. The calls are words filed in the database; no cut-off is given here.
quantity name: Activity

Below: 4 compounds and their reported Activity.
# mol, Activity
records = [
    ("COc1nsnc1OCCOCCOCCO", "inactive"),
    ("COc1nsnc1OCCOCCOCCOCCO", "inactive"),
    ("COc1nsnc1OCCN(C)C", "inactive"),
    ("COc1nsnc1OCC[N+](C)(C)C", "inactive"),
]

Please turn your attention to the following entry.
Problem: Entry "COc1nsnc1OCCO" : reported Activity = ?
Result: inactive
